# method-notes: yeast display, Sf9 membrane polyspecificity reagent, FACS + sequencing; frameworks hold sequencing errors
outcome-measure: polyreactivity (PSR sort gate)

>  <residues>
QVQLVESGGGLVQAGGSLRLSCAASGSTLIVYAMGWYRQAPGKEREFVAGITVSTGSTYYADSVKGRFTISRDNAKNTVYLQMNSQKPEDTAVYYCAADIRDGWDYFLFWEDGMDYSGQGTQVTVSS

>  <endpoint-value>
low polyreactivity

$$$$
>  <residues>
QVQLVESGGGLVHAGGSLRLICAASGSIFQSYDMGWYRQAPGKERELVAAISWSGSTTYYADSVKGRFTISRDNAKNTVYLQMNSLKPEDTAVYYCAVDSNPPDWWAVIYGYWGQGTQVTVSS

>  <endpoint-value>
low polyreactivity

$$$$

---

# method-notes: yeast display, Sf9 membrane polyspecificity reagent, FACS + sequencing; frameworks hold sequencing errors

>  <residues>
QVQLVESGGGLVQAGGSLRLSCAASGSIFESNDMGWYRQAPGKERELVAAYADSVKGRFTISRDNAKNTVYLQMNSLKPEDTAVYYCAKSLSLYVVPLYEYWGQGTQVTVSS

>  <polyreactivity (PSR sort gate)>
low polyreactivity

$$$$
>  <residues>
QVQLVESGGGLVQAGGSLRLSCAASGRIFTVNTMGWYREAPGKERELVASIRGGGSTNYADSVKGRFTISRDNAKNTVYLQMNSLKPEDTAVYYCAAGTSKPTPIYGYWGQGTQVPVSS

>  <polyreactivity (PSR sort gate)>
low polyreactivity

$$$$

---

# method-notes: yeast display, Sf9 membrane polyspecificity reagent, FACS + sequencing; frameworks hold sequencing errors

>  <residues>
QVQLVESGGGLVQAGGSLSLSCAASGYIFGPYDMGWYRQAPGKERELVAVIDWSGGSTYYADSVKGRFTISRDNAKNTFYLQMNSLKPEDTAVYYCAADISWGVSQFDYWGQGTQVTVSS

>  <polyreactivity (PSR sort gate)>
low polyreactivity

$$$$
>  <residues>
QVQLVESGGGLVQAGGSLRLSCAASGRISQIYAMGWYRQAPGKERELVASISSSGSRTYYADSVKGRFTISRDNAKNTVYLQMNSLKPEDTAVYYCAARWWARSRGPYDYWGQGTQVTVSS

>  <polyreactivity (PSR sort gate)>
high polyreactivity

$$$$
>  <residues>
QVQLVESGGGLVQAGGSLRLSCAASGSIFRLYVMGWYRQAPGKERELVAAITLSGGSTYYADSVKGRFTISRDNAENTVYLQMNSLKPEDTAVYYCNRVTLYDITFDYWGQGTQVTVSS

>  <polyreactivity (PSR sort gate)>
low polyreactivity

$$$$
>  <residues>
QVQLVESGGGLVQAGGSLRLSCAASGRIVNRYAMGWDRQAPVKERELVAAITYNGGSTYYADSVKGRFTISRDNAKNTVYLQMNSLKPVDTAVYYCNAVEVLDEGWGFWYYYWGQGTQVTVSS

>  <polyreactivity (PSR sort gate)>
high polyreactivity

$$$$
>  <residues>
QVQLVESGGGLVQAGGSLRLTSAASGSTFLKYTMGWYRQAPGKERELVAGITYSGGSTSYADSVKGRFTISRDNAKNTVYFQMNSLKPEDTAVYYSAAARNTVYSYRGLFYWGQGTQVTLSS

>  <polyreactivity (PSR sort gate)>
high polyreactivity

$$$$
>  <residues>
QVQLVESGGGLVQAGGSLRLSCAASGSIFPLYAMGWYRQAPGKERELVAAISWSGGSTYYADSVKGRFTISRDNAKNTVYLKMNSLKPEDTAVYYCATLYISTSGYIYEGDYWGQGTQVTVSS

>  <polyreactivity (PSR sort gate)>
high polyreactivity

$$$$
